Test system: Bacillus subtilis
Measurement Protocol: Antibacterial activity against Bacillus subtilis MTCC 441 by broth dilution method
Assay type: functional

- Molecule: "Cc1cnc(Cl)c(/C=C\\C#N)c1"
  Unit Tag: "mg/L"
  MIC: 37.5
- Molecule: "COC(=O)/C=C/c1cc(C)cnc1Cl"
  Unit Tag: "mg/L"
  MIC: 37.5
- Molecule: "CC(=O)/C=C\\c1cc(C)cnc1Cl"
  Unit Tag: "mg/L"
  MIC: 37.5
- Molecule: "Cc1cnc(Cl)c(/C=C/C#N)c1"
  Unit Tag: "mg/L"
  MIC: 75
- Molecule: "CN[C@@H]1[C@H](O[C@H]2[C@H](O[C@H]3[C@H](O)[C@@H](O)[C@H](N=C(N)N)[C@@H](O)[C@@H]3N=C(N)N)O[C@@H](C)[C@]2(O)C=O)O[C@@H](CO)[C@H](O)[C@H]1O [STREPTOMYCIN]"
  Unit Tag: "mg/L"
  MIC: 6.25
